Below, each entry is listed alongside its reported inhibition at 30 µM.
Tested on: B16F10 (malignant melanoma)
PROCEDURE SUMMARY: Antiproliferative activity (CCK-8 cell viability), B16F10
Type: cell-based
SETTINGS: Mus musculus, B16-F10, Compound concentration: 30 μM, 72 h, read-out: Antiproliferative activity in cancerous cells, B16F10

Exam item: Looking for the measured inhibition at 30 µM of CCc1ccc2c(c1)/C(=C\c1ccc(COc3ccccc3)cc1)C(C)=C2CC(=O)O , can you help?
Marked response: 30 to 50%

Exam item: Looking for the measured inhibition at 30 µM of CC1=C(CC(=O)O)c2cc(Br)ccc2/C1=C\c1ccc(Oc2ccc(F)cc2)cc1 , can you help?
Marked response: 30 to 50%

Exam item: Looking for the measured inhibition at 30 µM of COc1ccc2c(c1)C(CC(=O)O)=C(C)/C2=C/c1cccc(COc2ccccc2)c1 , can you help?
Marked response: < 30%

Exam item: Looking for the measured inhibition at 30 µM of O=C(O)CC1=C/C(=C/c2cccc(Oc3ccccc3)c2)c2cc(OCC(F)(F)F)ccc21 , can you help?
Marked response: 30 to 50%

Exam item: Looking for the measured inhibition at 30 µM of CC1=C(CC(=O)N2CCN(CCO)CC2)c2cc(F)ccc2/C1=C\c1ccc(Oc2ccc(F)cc2)cc1 , can you help?
Marked response: < 30%

* * *

Test system: MDA-MB-231 (breast cancer)
PROCEDURE SUMMARY: Antiproliferative activity (CCK-8 cell viability), MDA-MB-231
Assay type: cell-based
SETTINGS: Homo sapiens, Compound concentration: 10 μM, 72 h, read-out: Antiproliferative activity in cancerous cells, MDA-MB-231 (inhibition of cell growth)
MEASUREMENT LABEL: inhibition at 10 µM

Exam item: Form entry - test system: MDA-MB-231 (breast cancer); read-out: inhibition at 10 µM; molecule: CC1=C(CC(=O)O)c2cc(F)ccc2/C1=C\c1cccc(Oc2ccc(Br)cc2)c1 [C97]
Marked response: < 30%

* * *

Below, each entry is listed alongside its reported inhibition at 10 µM.
Test system: A549 (lung adenocarcinoma)
PROCEDURE SUMMARY: Antiproliferative activity (CCK-8 cell viability), A549
Type: cell-based
SETTINGS: Homo sapiens, Compound concentration: 10 μM, 72 h, read-out: Antiproliferative activity in cancerous cells, A549 (inhibition of cell growth)

Consider the following illustrative entries.
[[record]]
molecule = "CCC1=C(CC(=O)O)c2cc(F)ccc2/C1=C\\c1ccc(Oc2ccc(F)cc2)cc1"
result = "≥ 50%"

[[record]]
molecule = "CC1=C(CC(=O)O)c2cc(F)ccc2/C1=C\\c1ccc(Oc2ccc(Cl)c(Cl)c2)cc1"
result = "≥ 50%"

[[record]]
molecule = "O=C(O)CC1=C(Cc2ccc(Oc3ccc(F)cc3)cc2)/C(=C/c2ccc(F)cc2)c2ccc(F)cc21"
result = "≥ 50%"


Exam item: Looking for the measured inhibition at 10 µM of CC1=C(CC(=O)O)c2cc(F)ccc2/C1=C\c1ccc(Oc2ccc(Cl)cc2Cl)cc1 , can you help?
Marked response: ≥ 50%

Exam item: Looking for the measured inhibition at 10 µM of CC1=C(C(C)C(=O)O)c2ccccc2/C1=C\c1ccc(Oc2ccc(F)cc2)cc1 (centres unmarked) , can you help?
Marked response: 30 to 50%

Exam item: Looking for the measured inhibition at 10 µM of CCC1=C(CC(=O)O)c2cc(F)ccc2/C1=C\c1ccc(COc2ccccc2)cc1 , can you help?
Marked response: ≥ 50%

Exam item: Looking for the measured inhibition at 10 µM of COc1ccc(Oc2cccc(/C=C3/C(C)=C(CC(=O)O)c4cc(F)ccc43)c2)cc1Cl , can you help?
Marked response: ≥ 50%

Exam item: Looking for the measured inhibition at 10 µM of COc1ccc(Oc2cccc(/C=C3/C(C)=C(CC(=O)O)c4cc(Cl)ccc43)c2)cc1 , can you help?
Marked response: ≥ 50%

Exam item: Looking for the measured inhibition at 10 µM of CC1=C(CC(=O)O)c2cc(F)ccc2/C1=C\c1cccc(S(=O)(=O)c2ccc(F)cc2)c1 , can you help?
Marked response: 30 to 50%

Exam item: Looking for the measured inhibition at 10 µM of CC1=C(CC(=O)O)c2cc(F)ccc2/C1=C/c1ccc(Oc2ccc(Cl)cc2)cc1 , can you help?
Marked response: 30 to 50%

Exam item: Looking for the measured inhibition at 10 µM of CCc1ccc2c(c1)C(CC(=O)O)=C(C)/C2=C/c1ccc(CCc2ccccc2)cc1 , can you help?
Marked response: ≥ 50%

Exam item: Looking for the measured inhibition at 10 µM of O=C(O)CC1=C(CC2CCCC2)/C(=C/c2ccc(Oc3ccc(F)cc3)cc2)c2ccc(F)cc21 , can you help?
Marked response: ≥ 50%

Exam item: Looking for the measured inhibition at 10 µM of CC1=C(CC(=O)O)c2c(F)cccc2/C1=C\c1ccc(Oc2ccc(F)cc2)cc1 , can you help?
Marked response: < 30%

Exam item: Looking for the measured inhibition at 10 µM of CC1=C(CC(=O)O)c2cc(F)ccc2/C1=C/c1cccc(COc2ccc(F)c(F)c2)c1 , can you help?
Marked response: 30 to 50%

Exam item: Looking for the measured inhibition at 10 µM of CC1=C(Cc2noc(=O)[nH]2)c2cc(F)ccc2/C1=C\c1ccc(Oc2ccc(F)cc2)cc1 , can you help?
Marked response: ≥ 50%

Exam item: Looking for the measured inhibition at 10 µM of CC1=C(CC(=O)O)c2cc(F)ccc2/C1=C\c1ccc(Oc2cccc(Cl)c2)cc1 , can you help?
Marked response: ≥ 50%

Exam item: Looking for the measured inhibition at 10 µM of CC1=C(CC(=O)O)c2cc(F)ccc2/C1=C/c1ccc(-c2ccc(Cl)cc2)cc1 , can you help?
Marked response: ≥ 50%

Exam item: Looking for the measured inhibition at 10 µM of CC1=C(CC(=O)O)c2cc(F)ccc2/C1=C\c1ccc(OCCc2ccc(F)cc2)cc1 , can you help?
Marked response: 30 to 50%

Exam item: Looking for the measured inhibition at 10 µM of O=C(O)CC1=C(Cc2ccccc2)/C(=C/c2ccc(COc3ccccc3)cc2)c2ccc(F)cc21 , can you help?
Marked response: 30 to 50%

Hey, just so you know, these numbers are from patent US20260184663A1.
